assay: Quantitative highthroughput screen to assess conditional lethalithy of SEM cells grown in Human Plasma-Like Medium with dialyzed fetal bovine serum (HPLM+ds) (AID 1963882); conditions: SEM B-ALL cells in HPLM+ds, CellTiter-Glo viability, 48 h; series mostly up to 45.8 µM; also: nearly all actives have a fitted effect of over 35% in size; also: potency is read from the fitted curve at half-maximal effect
Records with an inconclusive call do not appear. Calls of active or inactive are those of the source. Calls follow the shape of the dose curve; as a rule, active = well fitted cell-killing curve with a large enough effect; inconclusive = small, poorly fitted or top-dose-only effect, or effect the other way; inactive = no such curve, though single readings can be large or run the other way.
Quantity Name: Potency

CCOC(=O)c1cncn1[C@H](C)c1ccccc1: inactive
O=P1(N(CCCl)CCCl)NCCCO1 (stereo unspecified): 9.35 µM (active)
C[C@H]([C@H](O)CCC(C)(C)O)[C@H]1CC[C@@]2(O)C3=CC(=O)[C@@H]4C[C@@H](O)[C@@H](O)C[C@]4(C)[C@@H]3CC[C@]12C: inactive
C[C@]12CCC(=O)C=C1CC[C@@H]1[C@H]3CC[C@](C)(O)[C@@]3(C)CC[C@@H]12: inactive
O=C(N[C@H]1CN2CCC1CC2)c1ccc(Cl)cc1: inactive
CC(O)(CS(=O)(=O)c1ccc(F)cc1)C(=O)Nc1ccc(C#N)c(C(F)(F)F)c1 (stereo unspecified): inactive
NCC1(CC(=O)O)CCCCC1: inactive
CN(C)[C@@H]1C(=O)C(C(N)=O)=C(O)[C@@]2(O)C(=O)C3=C(O)c4c(O)cccc4[C@@](C)(O)[C@H]3C[C@@H]12: inactive

So what's the measured Potency for this one? `N[C@@H](Cc1ccc(N(CCCl)CCCl)cc1)C(=O)O`
4.18 µM (active)

So what's the measured Potency for this one? `Cc1nc(-c2ccc(-c3ccc(C(=O)N4CCc5cc6c(cc54)C4(CCN(C)CC4)CO6)cc3)c(C)c2)no1`
inactive

So what's the measured Potency for this one? `CNC(=O)c1ccc(N2C(=S)N(c3ccc(C#N)c(C(F)(F)F)c3)C(=O)C23CCC3)cc1F`
inactive

So what's the measured Potency for this one? NC1CC1c1ccccc1 (stereo unspecified)
inactive

So what's the measured Potency for this one? `Oc1ccc2c3c1O[C@H]1c4[nH]c5c(c4C[C@@]4(O)[C@@H](C2)N(CC2CC2)CC[C@]314)C[C@@]1(O)[C@H]2Cc3ccc(O)c4c3[C@@]1(CCN2CC1CC1)[C@H]5O4`
inactive

So what's the measured Potency for this one? `C[C@@H]1[C@@H](C(=O)C[C@H]2O[C@@H]3O[C@]4(C)CC[C@@H]5[C@H](C)CC[C@@H]([C@H]2C)[C@@]35OO4)O[C@@H]2O[C@]3(C)CC[C@H]4[C@H](C)CC[C@@H]1[C@@]24OO3`
26.4 µM (active)

So what's the measured Potency for this one? `C[C@]12CC[C@H]3[C@@H](CCC4=CC(=O)CC[C@@]43C)[C@H]1CC[C@H]2OC(=O)CCC1CCCC1`
inactive

So what's the measured Potency for this one? CN1C(=O)COc2c(C(=O)NC3CN4CCC3CC4)cc(Cl)cc21 (stereo unspecified)
inactive

---

Assay: Quantitative highthroughput screen to assess conditional lethalithy of SEM cells grown in RPMI1640 with unreated serum (RPMI+s) (AID 1963883); also: nearly all actives have a fitted effect of over 35% in size
Settings: SEM B-ALL cells, CellTiter-Glo viability, 48 h; series mostly up to 45.8 µM
Experimental: Assay Provider: Jason Cantor Ph.D. Department of Biochemistry University of Wisconsin-Madison, Madison, WI, USA Chemical screening studies have identified drug sensitivities across hundreds of cancer cell lines but most putative therapeutics fail to translate. […] Sets of conditional anticancer compounds spanned phases of clinical development and included non-oncology drugs were assessed. […] 6; Detection; Luminescence, Viewlux PerkinElmer. […]
Records with an inconclusive call do not appear. Active and inactive are the calls of the source. Calls come from the whole dose curve; as a rule, active = well fitted cell-killing curve with a large enough effect; inconclusive = small, poorly fitted or top-dose-only effect, or effect the other way; inactive = no such curve, though single readings can be large or run the other way.
Hello, when you answer, please use one of the following outcomes: T for active, F for inactive

Use the examples below as a reference point.
COc1ccc2c(c1)[C@]13CCCCC1C(C2)N(C)CC3 (stereo partly drawn): F
O=C(O)c1nn(Cc2ccc(Cl)cc2Cl)c2ccccc12: F
O=C1CC[C@@]2(O)[C@H]3Cc4ccc(O)c5c4[C@@]2(CCN3CC2CC2)[C@H]1O5: F
CC(C)(O)C=CC(=O)[C@](C)(O)[C@H]1[C@H](O)C[C@]2(C)[C@@H]3CC=C4[C@@H](C=C(O)C(=O)C4(C)C)[C@]3(C)C(=O)C[C@@]12C: T
O=C(Oc1ccc([N+](=O)[O-])cc1)N1CCC(C(O)(c2ccc3c(c2)OCO3)c2ccc3c(c2)OCO3)CC1: F
O=C1CCC[C@@H]2[C@H]3CCCN4CCC[C@@H](CN12)[C@@H]34: F
COC(=O)[C@@H](N)CCCN=C(N)N[N+](=O)[O-]: F

From here, focus on the item given below.
How did this test come out for `CC=C(C)C(=O)O[C@H]1C(C)=C2[C@@H]3OC(=O)[C@@](C)(O)[C@@]3(O)[C@@H](OC(=O)CCC)C[C@](C)(OC(C)=O)[C@@H]2[C@@H]1OC(=O)CCCCCCC` ?
T
